# experimental-target: MMP-3 (stromelysin) (Homo sapiens)
# Sequence (P08254 100-477): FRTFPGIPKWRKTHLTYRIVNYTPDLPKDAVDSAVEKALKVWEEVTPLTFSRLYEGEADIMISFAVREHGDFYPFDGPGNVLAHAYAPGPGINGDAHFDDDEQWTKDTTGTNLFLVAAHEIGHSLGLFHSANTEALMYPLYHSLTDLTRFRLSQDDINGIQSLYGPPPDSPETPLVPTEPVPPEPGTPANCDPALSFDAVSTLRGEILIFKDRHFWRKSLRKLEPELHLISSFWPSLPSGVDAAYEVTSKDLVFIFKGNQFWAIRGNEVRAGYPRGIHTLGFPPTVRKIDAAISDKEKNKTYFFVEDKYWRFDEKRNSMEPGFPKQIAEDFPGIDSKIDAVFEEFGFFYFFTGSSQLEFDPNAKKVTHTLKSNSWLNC
# measurement-notes: inhibition of MMP-3 hydrolysis of thiopeptolide substrate
# Type: biochemical
# condition: thiopeptolide substrate, pH 6.0, 22° C.; read-out: (IC50) MMP-3
reported-metric: pIC50
Convention used: pIC50 is expressed as -log10 of the molar concentration.

# count of solved cases: 4
compound="CCCCCCC(=O)NC(CC(=O)c1ccc2oc3ccccc3c2c1)C(=O)O (centres unmarked)" experimental_value=6.19
compound="O=C(CC(NC(=O)c1cnc2ccccc2n1)C(=O)O)c1ccc2oc3ccccc3c2c1 (centres unmarked)" experimental_value=5.46
compound="CCCC(C)(C)C(=O)NC(CC(=O)c1ccc2oc3ccccc3c2c1)C(=O)O (centres unmarked)" experimental_value=6.12
compound="O=C(CC(NC(=O)c1sccc1Cl)C(=O)O)c1ccc2oc3ccccc3c2c1 (centres unmarked)" experimental_value=6.00

Incoming: Give pIC50 for O=C(CC(NC(=O)c1ccc(Br)cc1)C(=O)O)c1ccc2oc3ccccc3c2c1 (centres unmarked) tested on MMP-3 (stromelysin) (Homo sapiens).
Outgoing: 5.89

Incoming: Under MMP-3 (stromelysin) (Homo sapiens), report pIC50 for CC(=O)N[C@@H](CC(=O)c1ccc2oc3ccccc3c2c1)C(=O)O
Outgoing: 5.80

Incoming: Please report pIC50 with MMP-3 (stromelysin) (Homo sapiens) for item O=C(CCCCCCc1ccccc1)N[C@@H](CC(=O)c1ccc2oc3ccccc3c2c1)C(=O)O .
Outgoing: 5.41

Incoming: Write down the reported pIC50 (system: MMP-3 (stromelysin) (Homo sapiens)) of O=C(CC(NC(=O)c1ccc(F)cc1)C(=O)O)c1ccc2oc3ccccc3c2c1 (centres unmarked)
Outgoing: 6.18

Incoming: Provide MMP-3 (stromelysin) (Homo sapiens) pIC50 reading for O=C(C[C@H](NC(=O)c1ccc(-c2ccccc2)cc1)C(=O)O)c1ccc2oc3ccccc3c2c1 .
Outgoing: 5.03

Incoming: Give reported pIC50 for O=C(CC(NC(=O)c1ccc(C(F)(F)F)cc1)C(=O)O)c1ccc2oc3ccccc3c2c1 (centres unmarked) (MMP-3 (stromelysin) (Homo sapiens))
Outgoing: 5.82

Incoming: Provide pIC50, tested on MMP-3 (stromelysin) (Homo sapiens), for O=C(CC(NC(=O)C12CC3CC(CC(C3)C1)C2)C(=O)O)c1ccc2oc3ccccc3c2c1 (centres unmarked) .
Outgoing: 5.04
